# Ki per record follows
# experimentalSystem: Sialidase (Clostridium perfringens)
# Sequence (P10481 whole entry): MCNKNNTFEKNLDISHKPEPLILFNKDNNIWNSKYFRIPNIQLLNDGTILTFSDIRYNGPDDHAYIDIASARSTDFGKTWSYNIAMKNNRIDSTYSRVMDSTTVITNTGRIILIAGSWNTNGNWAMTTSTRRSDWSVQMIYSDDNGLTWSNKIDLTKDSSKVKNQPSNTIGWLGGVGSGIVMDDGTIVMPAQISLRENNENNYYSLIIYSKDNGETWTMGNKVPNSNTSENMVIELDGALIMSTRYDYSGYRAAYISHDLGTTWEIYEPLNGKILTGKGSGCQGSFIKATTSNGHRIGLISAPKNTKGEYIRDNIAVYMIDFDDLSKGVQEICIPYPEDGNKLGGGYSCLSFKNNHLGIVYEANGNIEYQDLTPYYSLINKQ
# method: Noncompetitive inhibition of Clostridium perfringens neuraminidase
Express your answer as a number followed by its unit.

Some molecules with recorded Ki:
molecule | Ki
COc1ccc2c3c(oc2c1CC=C(C)C)-c1ccc(O)cc1OC3 | 2550 nM
CC(C)=CCc1c(O)ccc2c3c(oc12)-c1cc(C=O)c(O)cc1OC3 | 1210 nM
CC1(C)C=Cc2cc3c(cc2O1)OC[C@H]1c2ccc(O)cc2O[C@@H]31 | 21700 nM
COc1ccc2c(c1CC=C(C)C)O[C@H]1c3cc(CC=C(C)C)c(O)cc3OC[C@@]21O | 1800 nM
CC(C)=CCc1cc2c(cc1O)O[C@H]1c3ccc(O)cc3OC[C@@H]21 | 1780 nM

Look up Ki: CC(C)=CCc1cc2c(cc1O)OC[C@@]1(O)c3ccc4c(c3O[C@@H]21)C=CC(C)(C)O4
240 nM

Look up Ki: CC1(C)C=Cc2cc3c(cc2O1)O[C@H]1c2ccc(O)cc2OC[C@@H]31
11000 nM

Look up Ki: COc1ccc2c(c1CC=C(C)C)O[C@H]1c3ccc(O)cc3OC[C@@]21O
310 nM

Look up Ki: CC(C)=CCc1cc2c(cc1O)OC[C@H]1c3ccc(O)cc3O[C@@H]21
2090 nM

Look up Ki: Oc1ccc2c(c1)O[C@H]1c3ccc(O)cc3OC[C@@H]21
3830 nM

Look up Ki: CC(C)=CCc1c(O)ccc2c1O[C@H]1c3cc4c(cc3OC[C@@H]21)OC(C)(C)C(O)C4 (stereo partly specified)
4130 nM
